experimental target: human monoclonal nicotine-specific antibody N049, scFv-Fc fusion (scFv SEQ ID NO:68; HCVR SEQ ID NO:39, LCVR SEQ ID NO:41)
experimental context: read-out: Dissociation constant Kd, (S)-(-)-nicotine; scFv-Fc 5.4 µg/ml in PBS/2% BSA; tritium-labeled (S)-(-)-nicotine 3 to 444 nM; 48-72 h; mean ± SD of at least 2 independent experiments
readout type: Kd (nM)
Your answer should be a plain number; it is taken to be in nM.

Need Kd, item CN1CCC[C@H]1c1cccnc1 [(S)-(-)-nicotine] 72.7

----------
experimental target: human monoclonal nicotine-specific antibody IgG2-J042 (HCVR SEQ ID NO:28, LCVR SEQ ID NO:37)
experimental context: read-out: Dissociation constant Kd, (S)-(-)-nicotine; IgG2 7.5 µg/ml in PBS/2% BSA; tritium-labeled (S)-(-)-nicotine 3 to 444 nM; 48-72 h; mean ± SD of at least 2 independent experiments
readout type: pKd
As a rule, pKd stands for the negative log10 of the concentration, concentration in M.

Need pKd, item CN1CCC[C@H]1c1cccnc1 [(S)-(-)-nicotine] 7.52

----------
experimental target: human monoclonal nicotine-specific antibody IgG2-F063 (HCVR SEQ ID NO:28, LCVR SEQ ID NO:31)
experimental context: read-out: Dissociation constant Kd, (S)-(-)-nicotine; IgG2 7.5 µg/ml in PBS/2% BSA; tritium-labeled (S)-(-)-nicotine 3 to 444 nM; 48-72 h; mean ± SD of at least 2 independent experiments
readout type: pKd
As a rule, pKd stands for the negative log10 of the concentration, concentration in M.

Need pKd, item CN1CCC[C@H]1c1cccnc1 [(S)-(-)-nicotine] 7.50

----------
experimental target: human monoclonal nicotine-specific antibody I022, scFv-Fc fusion (scFv SEQ ID NO:70; HCVR SEQ ID NO:43, LCVR SEQ ID NO:45)
experimental context: read-out: Dissociation constant Kd, (S)-(-)-nicotine; scFv-Fc 5.4 µg/ml in PBS/2% BSA; tritium-labeled (S)-(-)-nicotine 3 to 444 nM; 48-72 h; mean ± SD of at least 2 independent experiments
readout type: pKd
As a rule, pKd stands for the negative log10 of the concentration, concentration in M.

Need pKd, item CN1CCC[C@H]1c1cccnc1 [(S)-(-)-nicotine] 7.37

----------
experimental target: human monoclonal nicotine-specific antibody IgG2-F018 (HCVR SEQ ID NO:24, LCVR SEQ ID NO:26)
method description: Equilibrium dialysis, affinity and competition
Format: binding
experimental context: competition with 56 nM tritium-labeled (S)-(-)-nicotine; unlabeled (R)-(+)-nicotine 1 nM to 100 µM; one-site competition model; read-out: Dissociation constant Kd of antibody-(R)-(+)-nicotine interaction
Experimental: Figure 1. Specificity of IgG2-F018. The binding of tritium-labeled (-)-nicotine (56 nM) to IgG2-F018 (50 nM) was measured by equilibrium dialysis in the presence of increasing concentrations of unlabeled (-)-nicotine, (-)-cotinine or acetylcholine. […] Affinity of antibodies for (S)-(-)-nicotine was determined by equilibrium dialysis using a DispoEquilibriumDialyzer (Harvard Biosciences). […] Aliquots from both sides of the chamber were taken and radioactivity measured in a scintillation counter. […]
readout type: pKd
As a rule, pKd stands for the negative log10 of the concentration, concentration in M.

Need pKd, item CN1CCC[C@@H]1c1cccnc1 [(R)-(+)-nicotine] 8.51

Origin of the recorded values: patent EP2222702B1
